Below, each entry is listed alongside its reported % Competition compared to the related control group.
molecular target: polyclonal antibodies in mouse sera specific for human PCSK9 aa 153-162 or aa 153-165; experiment: competition ELISA, 20 ug peptide with sera, plate coated with m2 (competitor)
Write the number in % without appending the unit.

See these solved cases before continuing.
SIPWNLERITPTR	73
SIPGNLERIT	0
SITWNLERIT	62
SIPWNLERAT	77
SIPWNLERITPAR	74
VIPWNLERIT	51
SIPWSLERIT	73
SIPWNLERISPPR	79
SIPDNLERIT	3
SIPWNLERITPPA	65

For reference, reported % Competition compared to the related control group for `SIPWALERIT` stands at 75

The reported % Competition compared to the related control group of the binder ITELSRWPNI [… (negative control)] was 0

// provenance: patent US20170112908A1
